system: OVCAR-5 ovarian; assay: NCI tumour cell line growth inhibition, 48 h
Item-by-item account of TGI

In plain terms, O=C(c1ccccc1)c1c(C(=O)c2ccccc2)c(-c2ccccc2)c2c(-c3ccccc3)sc(-c3ccccc3)c2c1-c1ccccc1 has a documented TGI of > 100 µM

In plain terms, COC(=O)C(Nc1ccc(OC)cc1)c1ccccc1 (stereo not drawn) has a documented TGI of > 100 µM

Continue with the next compound.
In plain terms, O=S(=O)(c1ccc(I)cc1)N(c1ccccc1)S(=O)(=O)C(F)(F)C(F)(F)C(F)(F)C(F)(F)F has a documented TGI of 95.4 µM

* * *

test system: M14 melanoma; assay: NCI tumour cell line growth inhibition, 48 h
Item-by-item account of TGI

In plain terms, CS(=O)c1ccc(COP(N)(=O)N(CCCl)CCCl)cc1 (stereo not given) has a documented TGI of > 100 µM

In plain terms, CC(NNC(=S)N1CCCCCC1)c1ccc2ccccc2n1 (stereo not given) has a documented TGI of 11.7 µM

In plain terms, CC(=O)O[C@H]1C(=O)[C@@]2(C)[C@H]([C@H](OC(=O)C3CCCCC3)[C@]3(O)C[C@H](OC(=O)[C@H](O)[C@@H](NC(=O)C4CCCCC4)C4CCCCC4)C(C)=C1C3(C)C)[C@]1(OC(C)=O)CO[C@@H]1C[C@@H]2O has a documented TGI of 1.2 µM

Further cases:
In plain terms, COC(=O)/C(=C\c1c(C)[nH]c2ccccc12)S(=O)(=O)c1ccccc1 has a documented TGI of 20 µM

In plain terms, CCOC(=O)c1c(NC(=O)Nc2ccccc2)c(C(N)=O)c2n1CCCCC2 has a documented TGI of > 100 µM

In plain terms, O=c1c2cccnc2nc2ccc3c[nH][nH]c3c12 has a documented TGI of > 10 µM

In plain terms, CC1OC(O[C@H]2CC[C@]3(C)[C@H]4CC=C5[C@@H]6[C@@H](C)[C@H](C)CC[C@]6(C(=O)O)CC[C@@]5(C(=O)O)[C@]4(C)CC[C@H]3C2(C)C)C(O)C(O)C1O (stereo not given in full) has a documented TGI of > 75 µM

In plain terms, Cc1ccc(S(=O)(=O)NNC(=S)Nc2cccc3ccccc23)cc1 has a documented TGI of > 100 µM

In plain terms, O=C(O)c1cc2c(cn1)[nH]c1ccccc12 has a documented TGI of > 100 µM

In plain terms, COc1ccc2[nH]c(Cl)c(/C=C3/C(=O)N(C)c4ccccc43)c2c1 has a documented TGI of > 100 µM
